Test system: MCF7
Assay comment: Antitumor activity against human MCF7 cells assessed as cell growth at 0.1 uM
Assay type: functional
Condition notes: read-out: Activity
Experimental endpoint: growth at 0.1 µM
Note: a bare number is incomplete; add the unit.

| Smiles string | Experimental endpoint | Obs value |
| --- | --- | --- |
| COc1cc(OC)nc(NC(=O)CSc2nnc(-c3cccnc3SCc3ccccc3)o2)n1 | growth at 0.1 µM | 95.5% |
| O=C(CSc1nnc(-c2cccnc2SCc2ccccc2)o1)Nc1nc(Cl)cc(Cl)n1 | growth at 0.1 µM | 92% |
| Cc1cnc(NC(=O)CSc2nnc(-c3cccnc3SCc3ccccc3)o2)s1 | growth at 0.1 µM | 62.8% |
| Cc1ccc2sc(-c3ccc(NC(=O)CSc4nnc(-c5cccnc5SCc5ccccc5)o4)cc3)nc2c1 | growth at 0.1 µM | 81.2% |
| c1ccc(CSc2ncccc2-c2nnc(SCCN3CCOCC3)o2)cc1 | growth at 0.1 µM | 94.4% |

Indicate its recorded growth at 0.1 µM; the molecule in question is CN1CCN(C(=O)CSc2nnc(-c3cccnc3SCc3ccccc3)o2)CC1
76.7%

* * *

System: BT-549
Assay comment: Antitumor activity against human BT549 cells assessed as cell growth at 0.1 uM
Format: functional
Condition notes: read-out: Activity
Experimental endpoint: growth at 0.1 µM (%)
Numbers only, in %.

Working through the 5 compounds below one at a time, give growth at 0.1 µM for each.
1. Cc1ccc2sc(-c3ccc(NC(=O)CSc4nnc(-c5cccnc5SCc5ccccc5)o4)cc3)nc2c1
2. O=C(CSc1nnc(-c2cccnc2SCc2ccccc2)o1)Nc1nc(Cl)cc(Cl)n1
3. Cc1cnc(NC(=O)CSc2nnc(-c3cccnc3SCc3ccccc3)o2)s1
4. c1ccc(CSc2ncccc2-c2nnc(SCCN3CCOCC3)o2)cc1
5. COc1cc(OC)nc(NC(=O)CSc2nnc(-c3cccnc3SCc3ccccc3)o2)n1

[91.6, 102, 75.7, 112, 99.6]

Indicate its recorded growth at 0.1 µM; the compound in question is CN1CCN(C(=O)CSc2nnc(-c3cccnc3SCc3ccccc3)o2)CC1
95.4

* * *

System: MDA-MB-231
Assay comment: Antitumor activity against human MDA-MB-231/ATCC cells assessed as cell growth at 0.1 uM
Assay type: functional
Condition notes: read-out: Activity
For each record, write down the corresponding growth at 0.1 µM.
Answers are plain numbers, in %.

Sample records with growth at 0.1 µM:
| Smiles string | Unit info | Obs value |
| --- | --- | --- |
| O=C(CSc1nnc(-c2cccnc2SCc2ccccc2)o1)Nc1nc(Cl)cc(Cl)n1 | % | 92 |
| Cc1cnc(NC(=O)CSc2nnc(-c3cccnc3SCc3ccccc3)o2)s1 | % | 11 |
| Cc1ccc2sc(-c3ccc(NC(=O)CSc4nnc(-c5cccnc5SCc5ccccc5)o4)cc3)nc2c1 | % | 71.4 |
| CN1CCN(C(=O)CSc2nnc(-c3cccnc3SCc3ccccc3)o2)CC1 | % | 56.5 |
| c1ccc(CSc2ncccc2-c2nnc(SCCN3CCOCC3)o2)cc1 | % | 114 |

Attention now shifts to the item below.
Indicate its recorded growth at 0.1 µM; the compound in question is COc1cc(OC)nc(NC(=O)CSc2nnc(-c3cccnc3SCc3ccccc3)o2)n1
108

* * *

Test system: OVCAR-8
Assay comment: Antitumor activity against human OVCAR8 cells assessed as cell growth at 0.1 uM
Format: functional
Condition notes: read-out: Activity
For each record, write down the corresponding growth at 0.1 µM.
Numbers only, in %.

Sample records with growth at 0.1 µM:
| Smiles string | Test target | growth at 0.1 µM / % |
| --- | --- | --- |
| CN1CCN(C(=O)CSc2nnc(-c3cccnc3SCc3ccccc3)o2)CC1 | OVCAR-8 | 97.7 |
| Cc1ccc2sc(-c3ccc(NC(=O)CSc4nnc(-c5cccnc5SCc5ccccc5)o4)cc3)nc2c1 | OVCAR-8 | 94.3 |

Working through the 2 compounds below one at a time, give growth at 0.1 µM for each.
1. Cc1cnc(NC(=O)CSc2nnc(-c3cccnc3SCc3ccccc3)o2)s1
2. COc1cc(OC)nc(NC(=O)CSc2nnc(-c3cccnc3SCc3ccccc3)o2)n1

70.3
105

Working through the 2 compounds below one at a time, give growth at 0.1 µM for each.
1. c1ccc(CSc2ncccc2-c2nnc(SCCN3CCOCC3)o2)cc1
2. O=C(CSc1nnc(-c2cccnc2SCc2ccccc2)o1)Nc1nc(Cl)cc(Cl)n1

1. 109
2. 102

* * *

For each record, write down the corresponding MIC.
System: Escherichia coli
Assay comment: Antimicrobial activity against Escherichia coli MTCC 443 assessed as growth inhibition measured after overnight incubation by broth dilution method
Type: functional
One number for each entry, in mg/L.

| Compound | Unit info | MIC |
| --- | --- | --- |
| CCOC(=O)CSc1nnc(-c2cccnc2SCc2ccccc2)o1 | mg/L | 500 |

Working through the 6 compounds below one at a time, give MIC for each.
1. CN1CCN(C(=O)CCl)CC1
2. Cc1cnc(NC(=O)CCl)s1
3. c1ccc(CSc2ncccc2-c2nnc(SCC3CO3)o2)cc1 (centres undefined)
4. O=C(CCl)Nc1nc(Cl)cc(Cl)n1
5. O=C(CCl)Nn1cnnc1
6. c1ccc(CSc2ncccc2-c2nnc(SCCN3CCOCC3)o2)cc1

[125, 250, 62.5, 200, 250, 200]

Working through the 6 compounds below one at a time, give MIC for each.
1. NNC(=O)c1cccnc1SCc1ccccc1
2. Cc1ccc2sc(-c3ccc(NC(=O)CSc4nnc(-c5cccnc5SCc5ccccc5)o4)cc3)nc2c1
3. Cc1ccc2sc(-c3ccc(NC(=O)CCl)cc3)nc2c1
4. COc1cc(OC)nc(NC(=O)CSc2nnc(-c3cccnc3SCc3ccccc3)o2)n1
5. O=C(CSc1nnc(-c2cccnc2SCc2ccccc2)o1)Nn1cnnc1
6. S=c1[nH]nc(-c2cccnc2SCc2ccccc2)o1

125
100
125
100
100
100

Indicate its recorded MIC; the compound in question is O=C(CSc1nnc(-c2cccnc2SCc2ccccc2)o1)Nc1nc(Cl)cc(Cl)n1
200
